Data origin: the supplement of paper PMC12667976

B1: library; numbered along this chain (parent)
chain: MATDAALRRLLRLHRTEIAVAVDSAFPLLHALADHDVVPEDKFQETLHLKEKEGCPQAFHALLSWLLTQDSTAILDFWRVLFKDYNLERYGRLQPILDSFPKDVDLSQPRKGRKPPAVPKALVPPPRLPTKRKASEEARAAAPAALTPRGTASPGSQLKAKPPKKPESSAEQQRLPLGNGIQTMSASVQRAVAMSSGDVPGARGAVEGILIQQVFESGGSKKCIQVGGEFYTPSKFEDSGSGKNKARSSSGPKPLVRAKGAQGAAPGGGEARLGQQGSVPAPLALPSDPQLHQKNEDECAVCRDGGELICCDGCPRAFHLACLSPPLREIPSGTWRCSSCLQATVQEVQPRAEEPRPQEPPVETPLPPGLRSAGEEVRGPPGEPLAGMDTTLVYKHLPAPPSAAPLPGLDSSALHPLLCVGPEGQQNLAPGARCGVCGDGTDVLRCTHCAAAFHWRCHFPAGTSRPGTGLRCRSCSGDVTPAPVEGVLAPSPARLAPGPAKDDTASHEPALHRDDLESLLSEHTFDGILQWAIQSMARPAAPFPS

variants of: B1; assay: AIRE transcriptional activation functional score (insulin promoter-GFP; nonsense median 0, synonymous median 1) (normalised score); higher = higher AIRE activity (more reporter activation); conditions: with insulin promoter-GFP reporter in HEK293
Each entry below carries its recorded AIRE transcriptional activation functional score.
VALUE_KIND: AIRE transcriptional activation functional score

>  <MUTATION_LIST>
G408T

>  <REPORTED_VALUE>
0.879

$$$$
>  <MUTATION_LIST>
L291Q

>  <REPORTED_VALUE>
0.902

$$$$
>  <MUTATION_LIST>
D297H

>  <REPORTED_VALUE>
0.894

$$$$
